measured_target: Myc proto-oncogene protein (Homo sapiens)
Sequence (P01106 whole entry): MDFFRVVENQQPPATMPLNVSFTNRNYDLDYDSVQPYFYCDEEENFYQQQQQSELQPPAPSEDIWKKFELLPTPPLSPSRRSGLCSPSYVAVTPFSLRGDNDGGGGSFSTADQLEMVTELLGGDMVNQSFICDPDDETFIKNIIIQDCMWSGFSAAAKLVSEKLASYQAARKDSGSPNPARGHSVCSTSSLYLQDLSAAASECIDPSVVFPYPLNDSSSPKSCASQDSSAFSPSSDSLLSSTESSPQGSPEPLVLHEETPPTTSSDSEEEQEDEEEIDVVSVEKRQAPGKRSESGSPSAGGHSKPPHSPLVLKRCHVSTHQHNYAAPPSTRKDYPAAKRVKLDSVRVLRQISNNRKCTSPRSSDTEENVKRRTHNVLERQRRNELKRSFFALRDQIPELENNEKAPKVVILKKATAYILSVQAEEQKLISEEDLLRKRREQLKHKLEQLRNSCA
protocol_notes: Inhibition of human c-Myc assessed as reduction in c-Myc/Max/Ebox DNA complex formation using pre-formed complex of c-Myc and biotinylated DNA containing single Ebox-sequence followed by compound addition and further addition of his6-tagged c-Max and incubated for 2 hrs by AlphaScreen assay
pIC50: −log10 of the molar value.
compounds and their reported pIC50

Use the examples below as a reference point.
compound=COCCNCCC(=O)Nc1sc2c(c1-c1nc3ccc(-c4ccccc4Cl)cc3s1)CCNC2 measured_attribute=pIC50 observed_result="< 5.00"
compound=COCCNCCC(=O)Nc1sc2c(c1-c1nc3ccc(-c4ccncc4Cl)cc3s1)CCNC2 measured_attribute=pIC50 observed_result="< 5.00"
compound=COCCNCCC(=O)Nc1sc2c(c1-c1nc3ccc(-c4cncc(C(F)(F)F)c4)cc3s1)CCNC2 measured_attribute=pIC50 observed_result="< 5.00"

Fill blank: measured pIC50 of the compound CNS(=O)(=O)c1ccccc1-c1ccc2sc(-c3c(NC(=O)CCNCCOC)sc4c3CCNC4)nc2c1 is ____.
< 5.00

What does the data say about its pIC50? Entry: CC(=O)Nc1cccc2sc(-c3c(NC(=O)CCNC(C)C)sc4c3CCNC4)nc12
6.00 to 6.52

// returns reported pIC50 for input COc1cccc(-c2ccc3sc(-c4c(NC(=O)CCNC(C)C)sc5c4CCNC5)nc3c2)c1
5.00 to 6.00

Given COCCNCCC(=O)Nc1sc2c(c1-c1nc3ccc(-c4cccc(C(=O)N5CCN(C)CC5)c4)cc3s1)CCNC2 , state its recorded pIC50.
6.00 to 6.52

Which pIC50 reading was recorded for the compound COCCNCCC(=O)Nc1sc2c(c1-c1nc3ccc(-c4ccc5ncccc5c4)cc3s1)CCNC2 ?
< 5.00

Report pIC50 for COCCNCCC(=O)Nc1sc2c(c1-c1nc3cc(-c4ccc(N5CCNCC5)nc4)ccc3s1)CCNC2 please.
> 6.52

Origin of values: ChEMBL document CHEMBL4476874
